The reported measurements were obtained from patent US20110165660A1.

# assayed target: Ruminococcus flavefaciens strain 17 (Siijpesteijn 1948) xylose isomerase, native (XI-R), SEQ ID NO: 31 (gene SEQ ID NO: 29/30) (Ruminococcus flavefaciens, UniProt Q9S306)
# Construct: soluble whole cell extract, not purified
# Sequence (Q9S306 whole entry): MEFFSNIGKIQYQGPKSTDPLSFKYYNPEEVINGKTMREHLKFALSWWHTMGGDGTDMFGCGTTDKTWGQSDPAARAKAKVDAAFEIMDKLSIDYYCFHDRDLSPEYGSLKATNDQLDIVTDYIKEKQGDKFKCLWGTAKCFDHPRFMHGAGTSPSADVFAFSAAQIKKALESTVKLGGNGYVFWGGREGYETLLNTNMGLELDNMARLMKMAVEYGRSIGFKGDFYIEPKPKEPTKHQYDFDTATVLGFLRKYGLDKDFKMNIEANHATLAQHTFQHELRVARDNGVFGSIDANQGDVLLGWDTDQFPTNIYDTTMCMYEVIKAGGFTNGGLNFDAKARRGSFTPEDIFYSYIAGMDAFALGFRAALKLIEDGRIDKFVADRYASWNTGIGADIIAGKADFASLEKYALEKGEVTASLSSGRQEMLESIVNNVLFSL
# method: Xylose isomerase kinetics (SDH-coupled, NADH, A340), with and without xylitol
# condition parameters: about 0 to about 50 mM xylitol; pH 7.5, about 30° C.
recorded endpoint: Ki (mM)
A number alone suffices; assume mM.

input: Give the value of Ki reported for the following: OC[C@@H](O)[C@H](O)[C@@H](O)CO [xylitol]
output: 43.6
